- MEASUREMENT_TARGET: recombinant arginase from Leishmania amazonensis (ARG-L) (Leishmania amazonensis, UniProt O96394)
- TEST_SUMMARY: biochemical
pIC50: −log10 of the molar value.
Listing of recorded pIC50 by entry.

COMPOUND: O=C(OC1Cc2c(O)cc(O)cc2OC1c1cc(O)c(O)c(O)c1)c1cc(O)c(O)c(O)c1 (single isomer, unassigned; (-)) [EGCG, (−)-Epigallocatechin-3-gallate]
pIC50: 5.42
//
COMPOUND: O=C(O)c1cc(O)c(O)c(O)c1
pIC50: 5.66

----------
- MEASUREMENT_TARGET: rat liver arginase (ARG-1) (Rattus norvegicus, UniProt P07824)
- Construct: Rat liver arginase (ARG-1) was prepared by lysing 5 g of liver cells; from tissue; host or cells: rat liver
- Sequence (P07824 1-323): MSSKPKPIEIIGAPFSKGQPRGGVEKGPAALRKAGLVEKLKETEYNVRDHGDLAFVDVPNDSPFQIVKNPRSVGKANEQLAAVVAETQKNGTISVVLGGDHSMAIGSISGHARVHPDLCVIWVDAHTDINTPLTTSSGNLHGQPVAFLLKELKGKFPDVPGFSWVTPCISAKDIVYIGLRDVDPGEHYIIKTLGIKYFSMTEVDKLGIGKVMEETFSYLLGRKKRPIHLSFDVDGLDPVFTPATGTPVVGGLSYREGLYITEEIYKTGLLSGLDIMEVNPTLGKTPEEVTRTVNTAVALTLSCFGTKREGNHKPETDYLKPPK
- TEST_SUMMARY: Inhibition of rat liver arginase (ARG-1)
- Assay type: biochemical
- RECORDED_CONDITIONS: inhibitors at 1000 µM
METRIC_NAME: inhibition at 1000 µM (%)

COMPOUND: O=C(OC1Cc2c(O)cc(O)cc2OC1c1cc(O)c(O)c(O)c1)c1cc(O)c(O)c(O)c1 (single isomer, unassigned; (-)) [EGCG, (−)-Epigallocatechin-3-gallate]
MEASUREMENT_TARGET: rat liver arginase (ARG-1) (Rattus norvegicus, UniProt P07824)
RECORDED_VALUE: 29
--
COMPOUND: Oc1cc(O)c2c(c1)O[C@H](c1ccc(O)c(O)c1)[C@@H](O)C2 [(+)-catechin]
MEASUREMENT_TARGET: rat liver arginase (ARG-1) (Rattus norvegicus, UniProt P07824)
RECORDED_VALUE: 26
--
COMPOUND: Oc1cc(O)c2c(c1)O[C@H](c1ccc(O)c(O)c1)[C@H](O)C2 [(−)-epicatechin]
MEASUREMENT_TARGET: rat liver arginase (ARG-1) (Rattus norvegicus, UniProt P07824)
RECORDED_VALUE: 22
--
COMPOUND: O=C(O)c1cc(O)c(O)c(O)c1
MEASUREMENT_TARGET: rat liver arginase (ARG-1) (Rattus norvegicus, UniProt P07824)
RECORDED_VALUE: 20
